Every entry's value here was drawn from patent US7507813B2.

protocol description: Particle size of the cefuroxime axetil particles (SEM images)
Format: physicochemical
assay setup: amorphous particles from antisolvent precipitation
assay readout: average particle size

Solved entries (count: 5):
| molecule | average particle size |
| --- | --- |
| CO/N=C(\C(=O)N[C@@H]1C(=O)N2C(C(=O)OC(C)OC(C)=O)=C(COC(N)=O)CS[C@H]12)c1ccco1 (some centres unmarked) [Example 1, cefuroxime axetil] | about 500 nm |
| CO/N=C(\C(=O)N[C@@H]1C(=O)N2C(C(=O)OC(C)OC(C)=O)=C(COC(N)=O)CS[C@H]12)c1ccco1 (some centres unmarked) [Example 9, cefuroxime axetil] | about 500 nm |
| CO/N=C(\C(=O)N[C@@H]1C(=O)N2C(C(=O)OC(C)OC(C)=O)=C(COC(N)=O)CS[C@H]12)c1ccco1 (some centres unmarked) [Example 6, cefuroxime axetil] | about 1 μm |
| CO/N=C(\C(=O)N[C@@H]1C(=O)N2C(C(=O)OC(C)OC(C)=O)=C(COC(N)=O)CS[C@H]12)c1ccco1 (some centres unmarked) [Example 7, cefuroxime axetil] | about 500 nm |
| CO/N=C(\C(=O)N[C@@H]1C(=O)N2C(C(=O)OC(C)OC(C)=O)=C(COC(N)=O)CS[C@H]12)c1ccco1 (some centres unmarked) [Example 3, cefuroxime axetil] | about 1 μm |

The record that follows has no average particle size shown yet.
## Task Fill blank: measured average particle size of the molecule CO/N=C(\C(=O)N[C@@H]1C(=O)N2C(C(=O)OC(C)OC(C)=O)=C(COC(N)=O)CS[C@H]12)c1ccco1 (some centres unmarked) [Example 11, cefuroxime axetil] is ____.
## Result about 1 μm
